# Method: chemical genetic growth profiling, strain panel (AID 1159580);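 note: tested at 20 µM; growth read once vehicle control cultures reached saturation at 30 °C; 1 = growth at the plate median or of vehicle wells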
# Measurement setup: S. cerevisiae deletion strains, growth OD, locus YOR290C, strain snf2, stronger effect = lower value
The whole screen tested about 5,500 compounds, of which about 2,000 (36%) were called active. Another 18% or so got no clear call; they are omitted. The list shows a part of the results.

Compound: OC(c1cc(C(F)(F)F)nc2c(C(F)(F)F)cccc12)C1CCCCN1 (stereo unspecified)
normalized growth: 0.991
//
Compound: CC(=O)Oc1cc2c(c(C)c1OC(C)=O)CC1OC13C2(C)CCC1(C)C2CC(C)(C(=O)O)CCC2(C)CCC13C (stereo unspecified)
normalized growth: 0.994
//
Compound: c1ccc([C@H]2CN3CCSC3=N2)cc1
normalized growth: 1.01
//
Compound: CN1CCN(CC(=O)N2c3ccccc3C(=O)Nc3cccnc32)CC1
normalized growth: 1.02
//
Compound: CO[C@H]1C[C@H](O[C@H]2[C@H](C)[C@@H](OC3O[C@H](C)C[C@H](N(C)C)[C@H]3OC(C)=O)[C@@H](C)C[C@]3(CO3)C(=O)[C@H](C)[C@@H](OC(C)=O)[C@@H](C)[C@@H](C)OC(=O)[C@@H]2C)O[C@@H](C)[C@@H]1OC(C)=O (stereo partly specified)
normalized growth: 0.996
//
Compound: C#CC1(O)CCC2C3CCC4=CC(=O)CCC4(C)C3CCC21C (stereo unspecified)
normalized growth: 0.974
//
Compound: NC(=O)NO
normalized growth: 1.02
//
Compound: C#C[C@]1(O)CCC2C3CCC4=Cc5oncc5C[C@]4(C)C3CC[C@@]21C (stereo partly specified)
normalized growth: 1
//
Compound: C[C@]12CCC(=O)C=C1CCC1C2[C@@H](O)C[C@@]2(C)C1CC[C@]2(O)C(=O)COC(=O)CCC(=O)O (stereo partly specified)
normalized growth: 0.988
//
Compound: COc1cc2c(cc1OC)[C@@]13CCN4CC5=CCOC6CC(=O)N2C1[C@H]6[C@H]5C[C@H]43 (stereo partly specified)
normalized growth: 0.99
//
Compound: CCCCCCCCCCCCCCCCCCOCC(O)CO (stereo unspecified)
normalized growth: 0.973

---

# Method: chemical genetic growth profiling, strain panel (AID 1159580);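 note: tested at 20 µM; growth read once vehicle control cultures reached saturation at 30 °C; 1 = growth at the plate median or of vehicle wells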
# Measurement setup: S. cerevisiae deletion strains, growth OD, locus YLR384C, strain iki3, stronger effect = lower value
In all, about 5,500 compounds went through this assay and about 2,000 (36%) were called active. Inconclusive results (about 18%) are left out. The list shows a part of the results.
normalized growth strictly under 1 means 1; at 1 or over means 0.

Compound: c1ccc2c(Cc3c[nH]c4ccccc34)c[nH]c2c1
Assigned category: 1
--
Compound: O=C(CCc1ccc(O)cc1)c1c(O)cc(O)cc1O[C@@H]1O[C@H](CO)[C@@H](O)[C@H](O)[C@H]1O
Assigned category: 0
--
Compound: C[C@]12CCC3C(CC[C@H]4C[C@H](OS(=O)(=O)O)CC[C@]34C)C1CCC2=O (stereo not given in full)
Assigned category: 0
--
Compound: O=C(NC1CCCCC1)NC1CCCCC1
Assigned category: 1

---

# Method: chemical genetic growth profiling, strain panel (AID 1159580);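 note: tested at 20 µM; growth read once vehicle control cultures reached saturation at 30 °C; 1 = growth at the plate median or of vehicle wells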
# Measurement setup: S. cerevisiae deletion strains, growth OD, locus YMR078C, strain ctf18, stronger effect = lower value
The whole screen tested about 5,500 compounds, of which about 2,000 (36%) were called active. Another 18% or so got no clear call; they are omitted. This is one part of the list. Where a SMILES comes first, the peptide text is derived from it. Side-chain parts run from the residue outwards. [ ]: non-standard residue; d: D form. The star is where a group is joined. X1 = CCC(C)C(N)C1=NC(C(=O)*)CS1; Orn = NCCC[CH](N)C(=O)O

Compound: CC(=O)OCC1=C(C(=O)O)N2C(=O)[C@@H](NC(=O)CCCC(N)C(=O)O)C2SC1 (some centres undefined)
normalized growth: 1

Compound: O=C1c2ccccc2C(=O)C1c1ccccc1
normalized growth: 1.01

Compound: CC(=O)[O][Hg][c]1ccccc1
normalized growth: 0.0736

Compound: CCc1cccc2c3c([nH]c12)C(CC)(CC(=O)O)OCC3 (centres undefined)
normalized growth: 1

Compound: CCC(C)C(N)C1=NC(C(=O)NC(CC(C)C)C(=O)NC(CCC(=O)O)C(=O)NC(C(=O)NCCCCC2NC(=O)C(CC(N)=O)NC(=O)C(CC(=O)O)NC(=O)C(Cc3cnc[nH]3)NC(=O)C(Cc3ccccc3)NC(=O)C(C(C)CC)NC(=O)C(CCCN)NC2=O)C(C)CC)CS1 (stereo not drawn) (cyclo(DNK([Ile-Glu-Leu-X1])[Orn]IFH); configuration not given here)
normalized growth: 0.988

Compound: COc1ccc(C(=O)c2ccc(O)cc2)c(O)c1O
normalized growth: 0.971

Compound: COc1cc(/C=C/C=O)cc(OC)c1OC
normalized growth: 0.994

Compound: O=C(O)c1cc([N+](=O)[O-])ccc1NCCCc1ccccc1
normalized growth: 0.903

Compound: CCOc1cccc(C(=O)c2ccc(O)c(O)c2O)c1
normalized growth: 0.966

Compound: Cc1c(NC(=O)c2cccnc2)c(=O)n(-c2ccccc2)n1C
normalized growth: 0.984

Compound: CO[C@H]1C[C@H](O[C@H]2[C@H](C)[C@@H](OC3O[C@H](C)C[C@H](N(C)C)[C@H]3OC(C)=O)[C@@H](C)C[C@]3(CO3)C(=O)[C@H](C)[C@@H](OC(C)=O)[C@@H](C)[C@@H](C)OC(=O)[C@@H]2C)O[C@@H](C)[C@@H]1OC(C)=O (some centres undefined)
normalized growth: 1

Compound: CN1CCN(CCC=C2c3ccccc3Sc3ccc(S(=O)(=O)N(C)C)cc32)CC1
normalized growth: 0.983

Compound: COc1cccc(O)c1O
normalized growth: 0.99

Compound: CN1C(=O)CCS(=O)(=O)C1c1ccc(Cl)cc1 (centres undefined)
normalized growth: 1.02

Compound: CN1CCN(CC(=O)N2c3ccccc3C(=O)Nc3cccnc32)CC1
normalized growth: 1.01

Compound: NC(=O)NO
normalized growth: 0.999

Compound: CC(=O)OC1CCC2(C)C3CC(=O)C4(C)C(CC5OC6(CCC(C)CO6)[C@@H](C)C54)C3CC[C@H]2C1 (some centres undefined)
normalized growth: 0.986

Compound: NC1CC1c1ccccc1 (centres undefined)
normalized growth: 0.981

Compound: CCOc1ccc(C(=O)c2cc(O)c(OC)c(OC)c2O)cc1
normalized growth: 1.03

Compound: CCOc1ccc(NC(C)=O)cc1
normalized growth: 0.991

Compound: COc1ccc2c(c1OC)OC[C@@H](c1ccc(OC)c(OC)c1OC)C2
normalized growth: 1

Compound: CC(=O)O[C@H]1CC[C@]2(C)C3CC[C@@]4(C)C(CC5O[C@@]6(CCC(C)CO6)[C@@H](C)C54)C3CC[C@@H]2C1 (some centres undefined)
normalized growth: 1

Compound: COc1ccc2c(c1)[C@]13CCCC[C@H]1[C@H](C2)N(C)CC3
normalized growth: 0.982

Compound: COc1cc(-c2oc3cc(O)ccc3c(=O)c2O)cc(OC)c1OC
normalized growth: 1.02

---

# Method: chemical genetic growth profiling, strain panel (AID 1159580);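 note: tested at 20 µM; growth read once vehicle control cultures reached saturation at 30 °C; 1 = growth at the plate median or of vehicle wells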
# Measurement setup: S. cerevisiae deletion strains, growth OD, locus YEL061C, strain CIN8, stronger effect = lower value
About 2,000 (36%) of roughly 5,500 compounds were called active. Roughly 18% stayed inconclusive and do not appear here. Some of the results follow.
Item-by-item account of normalized growth

Compound: Cc1cc(=O)n(-c2ccccc2)n1C
normalized growth: 1
//
Compound: CC(=O)Nc1cc2ccccc2oc1=O
normalized growth: 1.02
//
Compound: COC(=O)CSCCc1nc(-c2ccc([N+](=O)[O-])cc2)cs1
normalized growth: 0.986
//
Compound: O=C(COC(=O)c1ccccc1C(=O)c1ccccc1)c1ccccc1
normalized growth: 0.989
//
Compound: CC(=O)c1cc2ccccc2oc1=O
normalized growth: 1.01
//
Compound: COc1cc(/C=N\NC(=S)NC2CC3CCC2C3)cc(OC)c1OC (stereo not given)
normalized growth: 0.994
//
Compound: Cc1ccc(N(CC2=NCCN2)c2cccc(O)c2)cc1
normalized growth: 1.04
//
Compound: COc1cc(C=Nc2ccc(F)cc2)cc(OC)c1OC
normalized growth: 0.986
//
Compound: COc1cc2nc(-c3cccs3)oc(=O)c2cc1OC
normalized growth: 0.981
//
Compound: CC(=O)OCC1=C(C(=O)O)N2C(=O)[C@@H](NC(=O)CCCC(N)C(=O)O)C2SC1 (stereo not given in full)
normalized growth: 1.01
//
Compound: CC1(C)C(=O)[C@@H]2O[C@@H]2[C@@]2(C)C1CC(=O)[C@]1(C)C2CC[C@@]2(C)[C@H](c3ccoc3)OC(=O)[C@H]3O[C@]321 (stereo not given in full)
normalized growth: 0.994
//
Compound: CC1=CC(=O)C2=C(C)CC(O)C3C(C)C(=O)OC3C12 (stereo not given)
normalized growth: 1
//
Compound: O=[N+]([O-])c1ccc(-c2nn[nH]n2)cc1
normalized growth: 1.01
//
Compound: COc1cccc(C(=O)N/N=C(/C)c2ccccc2O)c1
normalized growth: 0.982
//
Compound: CC(=O)c1cc2cc(Br)ccc2oc1=O
normalized growth: 0.975
//
Compound: O=c1c(O)c(-c2ccc(O)c(O)c2)oc2cc(O)ccc12
normalized growth: 0.95
//
Compound: Cc1ccc(N=Cc2cccs2)cc1Cl
normalized growth: 1
//
Compound: COc1cc(-c2oc3cc(O)ccc3c(=O)c2O)cc(OC)c1OC
normalized growth: 0.998
//
Compound: CN(C)CCc1c[nH]c2ccc(CS(=O)(=O)N3CCCC3)cc12
normalized growth: 1
//
Compound: O=C1CC2(CCCC2)C(=O)N1CCNc1nccc(C(F)(F)F)n1
normalized growth: 1.01
